# Test system: Lolium perenne (LOLPE)
# ASSAY METHOD TEXT: Example B post-emergence herbicidal test, LOLPE
# Type: in vivo
# SETUP CONDITIONS: Lolium perenne, 312 h, rate 250 g/ha, evaluated after 13 days, scale 0-100, read-out: Post-emergence activity LOLPE (100=total damage to plant; 0=no damage to plant)
REPORTED METRIC: pest or weed control at 250 g/ha (%)
I only need the number, in %, no unit after it.

The cases that follow already have their pest or weed control at 250 g/ha on record.
Enquiry: What pest or weed control at 250 g/ha value was documented for this molecule, Cc1cc(C)c(C2=C(OC(=O)N3CCCCC3)CC(CC3CCOC3)C2=O)c(C)c1 (stereo not drawn) ?
Return: 100

Enquiry: What pest or weed control at 250 g/ha value was documented for this molecule, Cc1cc(C)c(C2C(=O)C(Cc3ccccc3)C(CC3CCOC3)C2=O)c(C)c1 (stereo not drawn) ?
Return: 20

Enquiry: What pest or weed control at 250 g/ha value was documented for this molecule, Cc1cc(C)c(C2=C(OC(=O)C3CCCCC3)CC(CC3CCOC3)C2=O)c(C)c1 (stereo not drawn) ?
Return: 100

Enquiry: What pest or weed control at 250 g/ha value was documented for this molecule, Cc1cc(C)c(C2C(=O)C/C(=C\C3CCN(C(=O)c4ccccc4)C3)C2=O)c(C)c1 (stereo not drawn) ?
Return: 90

Continuing:
Enquiry: What pest or weed control at 250 g/ha value was documented for this molecule, Cc1cc(C)c(C2C(=O)CC(C(O)C3CCOCC3)C2=O)c(C)c1 (stereo not drawn) ?
Return: 70

Enquiry: What pest or weed control at 250 g/ha value was documented for this molecule, Cc1cc(C)c(C2C(=O)CC(CC3CCN(C(=O)C(C)(C)C)C3)C2=O)c(C)c1 (stereo not drawn) ?
Return: 60

Enquiry: What pest or weed control at 250 g/ha value was documented for this molecule, Cc1cc(-c2ccccc2F)cc(C)c1C1C(=O)CC(CC2CCOC2)C1=O (stereo not drawn) ?
Return: 90

Enquiry: What pest or weed control at 250 g/ha value was documented for this molecule, CC(=O)N1CCCCC1CC1CC(=O)C(c2c(C)cc(C)cc2C)C1=O (stereo not drawn) ?
Return: 70

Enquiry: What pest or weed control at 250 g/ha value was documented for this molecule, Cc1cc(C)c(C2=C(OC(=O)C3CC3)CC(CC3CCOC3)C2=O)c(C)c1 (stereo not drawn) ?
Return: 100

Enquiry: What pest or weed control at 250 g/ha value was documented for this molecule, Cc1cc(-c2ccc(Cl)cc2F)cc(C)c1C1C(=O)C/C(=C\C2CCOC2)C1=O (stereo not drawn) ?
Return: 70

Enquiry: What pest or weed control at 250 g/ha value was documented for this molecule, Cc1cc(-c2ccc(Cl)cc2F)cc(C)c1C1C(=O)C/C(=C\C2CCOCC2)C1=O (stereo not drawn) ?
Return: 70

Enquiry: What pest or weed control at 250 g/ha value was documented for this molecule, Cc1cc(C)c(C2=C(OC(=O)OC(C)(C)C)CC(CC3CCN(C(=O)OC(C)(C)C)CC3)C2=O)c(C)c1 (stereo not drawn) ?
Return: 40

Enquiry: What pest or weed control at 250 g/ha value was documented for this molecule, Cc1cc(-c2ccc(C(F)(F)F)cc2)cc(C)c1C1C(=O)CC(CC2CCOC2)C1=O (stereo not drawn) ?
Return: 30

Enquiry: What pest or weed control at 250 g/ha value was documented for this molecule, Cc1cc(C)c(C2C(=O)CC(CC3CCN(C(=O)C4CC4)C3)C2=O)c(C)c1 (stereo not drawn) ?
Return: 70

Enquiry: What pest or weed control at 250 g/ha value was documented for this molecule, Cc1cc(C)c(C2C(=O)CC(CCC3CCOCC3)C2=O)c(C)c1 (stereo not drawn) ?
Return: 90

----------
# Tested on: Lolium perenne (LOLPE)
# ASSAY METHOD TEXT: Example B post-emergence herbicidal test, LOLPE
# Assay type: in vivo
# SETUP CONDITIONS: Lolium perenne, 312 h, rate 250 g/ha, evaluated after 13 days, scale 0-100, read-out: Post-emergence activity LOLPE (100=total damage to plant; 0=no damage to plant)
The molecules listed here are annotated with their pest or weed control at 250 g/ha.
I only need the number, in %, no unit after it.

The cases that follow already have their pest or weed control at 250 g/ha on record.
Enquiry: What pest or weed control at 250 g/ha value was documented for this molecule, CCc1cc(C)cc(C)c1C1C(=O)CC(CCC2CCOCC2)C1=O (centres unmarked) [Compound T58] ?
Return: 90

Enquiry: What pest or weed control at 250 g/ha value was documented for this molecule, COc1ccc(CC2C(=O)C(c3c(C)cc(C)cc3C)C(=O)C2CC2CCOC2)cc1 (centres unmarked) [Compound T149] ?
Return: 40

Enquiry: What pest or weed control at 250 g/ha value was documented for this molecule, Cc1cc(C)c(C2C(=O)CC(CC3CCN(C(=O)c4ccccc4C)CC3)C2=O)c(C)c1 (centres unmarked) [Compound T72] ?
Return: 80

Enquiry: What pest or weed control at 250 g/ha value was documented for this molecule, Cc1cc(C)c(C2=C(OC(=O)OCC(C)(C)C)CC(CC3CCOC3)C2=O)c(C)c1 (centres unmarked) [Compound P24] ?
Return: 100

Enquiry: What pest or weed control at 250 g/ha value was documented for this molecule, CCOC(=O)N1CCC(CC2CC(=O)C(c3c(C)cc(C)cc3C)C2=O)CC1 (centres unmarked) [Compound T108] ?
Return: 70

Enquiry: What pest or weed control at 250 g/ha value was documented for this molecule, Cc1cc(C)c(C2C(=O)CC(CC3CCN(C(=O)c4ccc(Cl)cc4)CC3)C2=O)c(C)c1 (centres unmarked) [Compound T76] ?
Return: 40

Enquiry: What pest or weed control at 250 g/ha value was documented for this molecule, Cc1cc(C)c(C2C(=O)CC(CC3CCN(C(=O)Cc4ccccc4)CC3)C2=O)c(C)c1 (centres unmarked) [Compound T82] ?
Return: 90

Enquiry: What pest or weed control at 250 g/ha value was documented for this molecule, Cc1cccc(C(=O)N2CCC(CC3CC(=O)C(c4c(C)cc(C)cc4C)C3=O)CC2)c1 (centres unmarked) [Compound T122] ?
Return: 80

Continuing:
Enquiry: What pest or weed control at 250 g/ha value was documented for this molecule, Cc1cc(C)c(C2C(=O)CC(C(O)C3CCOC(C)(C)C3)C2=O)c(C)c1 (centres unmarked) [Compound T38] ?
Return: 100

Enquiry: What pest or weed control at 250 g/ha value was documented for this molecule, Cc1cc(C)c(C2C(=O)CC(CC3CCN(S(=O)(=O)C(F)(F)F)CC3)C2=O)c(C)c1 (centres unmarked) [Compound T112] ?
Return: 30

----------
# Tested on: Echinochloa crus-galli (ECHCG)
# ASSAY METHOD TEXT: Example B post-emergence herbicidal test, ECHCG
# Assay type: in vivo
# SETUP CONDITIONS: Echinochloa crus-galli, 312 h, rate 250 g/ha, evaluated after 13 days, scale 0-100, read-out: Post-emergence activity ECHCG (100=total damage to plant; 0=no damage to plant)
REPORTED METRIC: pest or weed control at 250 g/ha (%)
I only need the number, in %, no unit after it.

The cases that follow already have their pest or weed control at 250 g/ha on record.
Enquiry: What pest or weed control at 250 g/ha value was documented for this compound, Cc1ccc(C(=O)N2CCC(CC3CC(=O)C(c4c(C)cc(C)cc4C)C3=O)CC2)cc1 (stereo not shown) ?
Return: 70

Enquiry: What pest or weed control at 250 g/ha value was documented for this compound, `COC1=C(c2c(C)cc(C)cc2C)C(=O)C/C1=C\C1CCOCC1` ?
Return: 80

Enquiry: What pest or weed control at 250 g/ha value was documented for this compound, Cc1cc(C)c(C2C(=O)CC(CC3CCN(C(=O)N4CCCCC4)CC3)C2=O)c(C)c1 (stereo not shown) ?
Return: 10

Continuing:
Enquiry: What pest or weed control at 250 g/ha value was documented for this compound, CC(C)=CC(=O)N1CCC(CC2CC(=O)C(c3c(C)cc(C)cc3C)C2=O)C1 (stereo not shown) ?
Return: 80

----------
# Test system: Echinochloa crus-galli (ECHCG)
# ASSAY METHOD TEXT: Example B post-emergence herbicidal test, ECHCG
# Assay type: in vivo
# SETUP CONDITIONS: Echinochloa crus-galli, 312 h, rate 250 g/ha, evaluated after 13 days, scale 0-100, read-out: Post-emergence activity ECHCG (100=total damage to plant; 0=no damage to plant)
REPORTED METRIC: pest or weed control at 250 g/ha (%)
I only need the number, in %, no unit after it.

Enquiry: What pest or weed control at 250 g/ha value was documented for this compound, Cc1cc(C)c(C2C(=O)CC(CC3CCN(C(=O)C4CC4)C3)C2=O)c(C)c1 (centres unmarked) ?
Return: 60

Enquiry: What pest or weed control at 250 g/ha value was documented for this compound, Cc1cc(C)c(C2C(=O)CC(CC3CCN(C(=O)CC(C)C)CC3)C2=O)c(C)c1 (centres unmarked) ?
Return: 70

Enquiry: What pest or weed control at 250 g/ha value was documented for this compound, CCC1CCC(CC2CC(=O)C(c3c(C)cc(C)cc3C)C2=O)O1 (centres unmarked) ?
Return: 80

Enquiry: What pest or weed control at 250 g/ha value was documented for this compound, Cc1cc(C)c(C2C(=O)CC(CC3C[C@@H]4O[C@H]3[C@@H]3C(=O)NC(=O)[C@@H]34)C2=O)c(C)c1 (relative stereo) ?
Return: 20

Enquiry: What pest or weed control at 250 g/ha value was documented for this compound, Cc1cc(-c2ccc(Cl)cc2F)cc(C)c1C1C(=O)C/C(=C\C2CCOC2)C1=O (centres unmarked) ?
Return: 90

Enquiry: What pest or weed control at 250 g/ha value was documented for this compound, CON1CCC(CC2CC(=O)C(c3c(C)cc(C)cc3C)C2=O)CC1 (centres unmarked) ?
Return: 100

Enquiry: What pest or weed control at 250 g/ha value was documented for this compound, Cc1cc(C)c(C2C(=O)CC(CC3CCN(C(=O)c4cc(C)nn4C)CC3)C2=O)c(C)c1 (centres unmarked) ?
Return: 80

Enquiry: What pest or weed control at 250 g/ha value was documented for this compound, Cc1cc(C)c(C2=C(OC(=O)Oc3ccccc3)CC(CC3CCOC3)C2=O)c(C)c1 (centres unmarked) ?
Return: 100
